For reference, IC50 measured on Reverse transcriptase (Human immunodeficiency virus 1, UniProt Q9WKE8):

# COMPOUND, IC50
records = [
    ("COc1ccc2cc3[n+](cc2c1OC)CCc1cc2c(cc1-3)OCO2 [Berberinechloride]", "297 µM"),
    ("COc1cc2c(cc1O)-c1cc3ccc(OC)c(OC)c3c[n+]1CC2", "171 µM"),
    ("COc1cc2c(cc1O)CC[n+]1cc3c(OC)c(OC)ccc3cc1-2", "209 µM"),
]
